Biological target: Nuclear receptor subfamily 1 group I member 2 (Homo sapiens) (UniProt O75469)
Sequence (O75469 whole entry, looked up): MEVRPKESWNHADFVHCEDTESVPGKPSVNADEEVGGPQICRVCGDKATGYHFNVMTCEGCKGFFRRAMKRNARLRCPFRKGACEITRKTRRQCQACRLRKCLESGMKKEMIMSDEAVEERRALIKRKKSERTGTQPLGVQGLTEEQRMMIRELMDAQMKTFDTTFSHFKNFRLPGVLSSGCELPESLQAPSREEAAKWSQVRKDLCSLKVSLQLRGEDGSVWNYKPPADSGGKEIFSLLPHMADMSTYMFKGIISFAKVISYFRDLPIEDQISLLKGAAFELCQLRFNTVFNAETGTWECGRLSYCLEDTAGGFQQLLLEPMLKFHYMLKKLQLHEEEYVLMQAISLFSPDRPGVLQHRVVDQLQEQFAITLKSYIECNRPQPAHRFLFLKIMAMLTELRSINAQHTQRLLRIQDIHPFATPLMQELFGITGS
Experiment: Human pregnane X receptor (PXR) small molecule agonists, qHTS assay (AID 1346982); also: nearly all actives have a fitted effect of over 35% in size
Conditions: PXR-Luc HepG2, CYP3A4 luciferase reporter, 24 h; series mostly up to 92.4 µM
Source text: National Center for Advancing Translational Sciences [NCATS] NIH Chemical Genomics Center [NCGC] U.S. Environmental Protection Agency [EPA] National Institutes of Environmental Health Sciences [NIEHS] National Toxicology Program [NTP] The human pregnane X receptor (hPXR) regulates the expression of several drug metabolizing enzymes and induction of these proteins is a major mechanism for developing drug resistance in cancer. […]
Inconclusive results are not listed. Calls of active or inactive are those of the source. Calls follow the shape of the dose curve; as a rule, active = well fitted activation curve with a large enough effect in the repeat runs; inconclusive = weak or mixed curves; inactive = no such curve, though single readings can be large or run the other way.
Outcome codes: true = active, false = inactive

| Compound | Category |
| --- | --- |
| CCN(CC)CC(=O)Nc1c(C)cccc1C(=O)OC | false |
| SCCc1cnccn1 | false |
| O=C(O)c1cccc(C[C@@H]2COc3ccc(OCc4nc5cc(F)ccc5s4)cc3[C@@H]2O)c1 | false |
| O=C(O)c1cc(Cl)cc(Cl)c1O | false |
| COc1ccc(-c2cc(C(F)F)nn2-c2ccc(S(N)(=O)=O)cc2)cc1F | true |
| CCOc1ncc(F)c(=O)[nH]1 | false |
| COc1ccc(/C=C/C(=O)c2ccc(OC)cc2OC)cc1 | true |
| CC(C)C(O)C(C)(C)CO (stereo not given) | false |
| Nc1ccc(F)cc1 | false |
| CC1CCCC(=O)C1=O (stereo not given) | false |
| CC(C)CC(O)CC(C)C | false |
| CCc1ccc(C)cc1 | false |
| CC1C(C)(C)C2=C(C(=O)CCC2)C1(C)C (stereo not given) | false |
| CC(C)(C)CCCCCCOC(=O)c1ccccc1C(=O)OCCCCCCC(C)(C)C | true |
| Cc1c[nH]c2ccccc12 | false |
